Molecular target: Serine/threonine-protein kinase D2 (Homo sapiens, UniProt Q9BZL6)
Sequence (Q9BZL6 whole entry): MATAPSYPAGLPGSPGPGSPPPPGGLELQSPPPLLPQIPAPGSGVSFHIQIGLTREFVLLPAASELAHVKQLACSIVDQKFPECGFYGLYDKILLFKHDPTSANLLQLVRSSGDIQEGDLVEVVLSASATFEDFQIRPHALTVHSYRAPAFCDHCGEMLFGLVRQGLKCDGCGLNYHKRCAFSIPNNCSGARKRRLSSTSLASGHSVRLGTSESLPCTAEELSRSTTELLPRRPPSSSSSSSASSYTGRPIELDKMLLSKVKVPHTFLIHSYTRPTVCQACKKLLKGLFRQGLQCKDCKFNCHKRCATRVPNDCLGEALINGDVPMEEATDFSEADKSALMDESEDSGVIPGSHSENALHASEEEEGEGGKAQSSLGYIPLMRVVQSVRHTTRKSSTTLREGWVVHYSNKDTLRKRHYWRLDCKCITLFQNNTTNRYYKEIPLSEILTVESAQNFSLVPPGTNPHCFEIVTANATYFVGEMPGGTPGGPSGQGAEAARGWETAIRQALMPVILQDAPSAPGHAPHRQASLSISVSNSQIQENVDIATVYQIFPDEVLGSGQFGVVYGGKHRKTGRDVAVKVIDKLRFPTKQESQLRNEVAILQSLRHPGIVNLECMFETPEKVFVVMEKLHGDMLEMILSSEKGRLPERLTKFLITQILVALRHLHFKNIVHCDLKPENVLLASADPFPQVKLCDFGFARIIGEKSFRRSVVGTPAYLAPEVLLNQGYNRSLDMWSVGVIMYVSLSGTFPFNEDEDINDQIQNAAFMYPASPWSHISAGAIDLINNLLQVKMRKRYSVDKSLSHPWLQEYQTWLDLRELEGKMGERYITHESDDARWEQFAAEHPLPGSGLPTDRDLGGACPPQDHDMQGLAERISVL
Test: Inhibition of PKD2 (unknown origin)
measured.attribute: IC50

The compound identified as "O=C(c1ccc(F)c(F)c1Nc1ccc(I)cc1F)N1CC(O)([C@@H]2CCCCN2)C1" registered its IC50 at > 10 µM

* * *

Target: Receptor tyrosine-protein kinase erbB-2 (Homo sapiens, UniProt P04626)
Sequence (P04626 whole entry): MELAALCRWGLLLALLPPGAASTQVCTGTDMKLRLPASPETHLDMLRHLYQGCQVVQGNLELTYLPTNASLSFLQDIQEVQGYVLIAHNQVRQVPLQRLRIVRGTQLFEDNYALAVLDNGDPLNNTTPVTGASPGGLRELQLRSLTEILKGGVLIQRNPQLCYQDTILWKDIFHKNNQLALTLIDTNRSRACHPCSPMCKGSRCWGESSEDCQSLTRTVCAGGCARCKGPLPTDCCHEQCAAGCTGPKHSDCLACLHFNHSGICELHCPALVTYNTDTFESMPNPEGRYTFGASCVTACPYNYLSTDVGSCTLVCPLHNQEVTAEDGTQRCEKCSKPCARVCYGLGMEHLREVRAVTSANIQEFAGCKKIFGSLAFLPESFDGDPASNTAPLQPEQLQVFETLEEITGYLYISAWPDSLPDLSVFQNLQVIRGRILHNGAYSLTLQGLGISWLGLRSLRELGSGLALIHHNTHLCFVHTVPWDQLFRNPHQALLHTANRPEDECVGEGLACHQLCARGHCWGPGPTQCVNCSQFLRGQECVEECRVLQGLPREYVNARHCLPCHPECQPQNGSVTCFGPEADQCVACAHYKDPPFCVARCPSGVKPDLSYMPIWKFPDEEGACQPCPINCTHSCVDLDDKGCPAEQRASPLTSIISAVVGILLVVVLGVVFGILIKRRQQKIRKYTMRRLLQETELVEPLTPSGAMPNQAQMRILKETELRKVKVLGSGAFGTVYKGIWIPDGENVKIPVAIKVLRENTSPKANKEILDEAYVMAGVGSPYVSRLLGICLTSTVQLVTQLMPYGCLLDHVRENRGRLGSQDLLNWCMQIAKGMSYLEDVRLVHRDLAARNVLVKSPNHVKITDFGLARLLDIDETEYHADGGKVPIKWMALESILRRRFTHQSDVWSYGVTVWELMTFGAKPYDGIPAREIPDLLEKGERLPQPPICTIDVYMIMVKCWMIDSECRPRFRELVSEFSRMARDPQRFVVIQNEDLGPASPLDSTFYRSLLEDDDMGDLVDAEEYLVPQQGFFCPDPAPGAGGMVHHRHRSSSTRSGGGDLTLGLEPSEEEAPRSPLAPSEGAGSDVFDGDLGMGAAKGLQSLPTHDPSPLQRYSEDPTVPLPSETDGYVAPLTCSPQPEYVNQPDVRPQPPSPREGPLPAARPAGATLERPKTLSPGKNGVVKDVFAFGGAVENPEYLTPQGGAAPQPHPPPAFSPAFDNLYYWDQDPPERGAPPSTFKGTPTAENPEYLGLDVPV
measured.attribute: IC50

compound "O=C(c1ccc(F)c(F)c1Nc1ccc(I)cc1F)N1CC(O)([C@@H]2CCCCN2)C1" , IC50 observed: > 10 µM

* * *

Target: Tyrosine-protein kinase HCK (Homo sapiens)
Sequence (P08631 whole entry): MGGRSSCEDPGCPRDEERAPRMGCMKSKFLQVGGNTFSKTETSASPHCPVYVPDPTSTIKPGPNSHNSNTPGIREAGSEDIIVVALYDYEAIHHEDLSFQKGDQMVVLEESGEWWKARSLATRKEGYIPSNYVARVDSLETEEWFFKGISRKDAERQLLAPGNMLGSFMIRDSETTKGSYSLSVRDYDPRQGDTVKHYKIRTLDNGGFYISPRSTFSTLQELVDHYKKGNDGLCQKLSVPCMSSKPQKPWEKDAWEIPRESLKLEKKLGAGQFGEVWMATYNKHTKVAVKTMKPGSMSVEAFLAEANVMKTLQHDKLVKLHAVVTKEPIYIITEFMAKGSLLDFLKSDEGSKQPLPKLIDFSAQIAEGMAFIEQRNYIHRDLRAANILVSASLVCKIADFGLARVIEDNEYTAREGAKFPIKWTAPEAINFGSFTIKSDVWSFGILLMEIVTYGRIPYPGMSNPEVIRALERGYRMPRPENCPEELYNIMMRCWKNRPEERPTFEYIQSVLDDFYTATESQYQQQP
measured.attribute: IC50

For "O=C(c1ccc(F)c(F)c1Nc1ccc(I)cc1F)N1CC(O)([C@@H]2CCCCN2)C1" on Tyrosine-protein kinase HCK (Homo sapiens), measured IC50 was > 10 µM
